measuredProperty: glass transition temperature (°C)

compound: *NCCCCCCNc1nc(*)nc(-c2ccccc2)n1 (repeat unit)
glass transition temperature, °C: 95.00

compound: *Oc1ccc(C(=O)c2ccc(Oc3ccc(C(=O)c4cccc(C(=O)c5ccc(*)cc5)c4)cc3)cc2)cc1 (repeat unit)
glass transition temperature, °C: 152.00

compound: *CC(COCC=C)S* (repeat unit)
glass transition temperature, °C: -59.00

compound: *CC(*)(C)C(=O)Oc1ccc(/C=C/c2ccccc2)cc1 (repeat unit)
glass transition temperature, °C: 143.00

compound: *Nc1cc([N+](=O)[O-])c(NC(=O)CCCCCCCCCCCCC(*)=O)cc1/C=C/c1ccc(N(C)C)cc1 (repeat unit)
glass transition temperature, °C: 125.00

----------
measuredProperty: glass transition temperature (°C)

Solved entries (count: 5):
compound: *CCC(*)(C)c1ccccc1 (repeat unit)
glass transition temperature / °C: 93.00
--
compound: *Oc1ccc(CC(NC(=O)CCc2ccc(OC(=O)CCCCC(*)=O)cc2)C(=O)OCCOCCOCC)cc1 (repeat unit)
glass transition temperature / °C: 15.00
--
compound: *CCCCCCCCCCCc1nc2ccc(-c3ccc4nc(*)oc4c3)cc2o1 (repeat unit)
glass transition temperature / °C: 62.00
--
compound: *Oc1cc(OC(=O)c2ccc(C)cc2)c(OC(=O)CCCCCCCCCCCCCCC(*)=O)cc1OC(=O)c1ccc(C)cc1 (repeat unit)
glass transition temperature / °C: 27.00
--
compound: *Oc1ccc(C(=O)OCCOCCOCCOCCOC(=O)c2ccc(OC(=O)c3ccc(C(*)=O)cc3)cc2)cc1 (repeat unit)
glass transition temperature / °C: 30.00

1. *CNC(=O)OCc1ccc(COCc2ccc(COC(=O)NCc3ccc(C(C)(C)c4ccc(*)o4)o3)o2)o1 (repeat unit)
2. *c1ccc(Oc2cccc(-c3cc(-c4ccccc4)cc(-c4cccc(Oc5ccc(N6C(=O)c7ccc(Oc8ccc9c(c8)C(=O)N(*)C9=O)cc7C6=O)cc5)c4)n3)c2)cc1 (repeat unit)
3. *CCN(CCOC(=O)c1ccc(C(=O)O*)cc1)c1ccc(/N=N/c2ccc(-c3nc4ccc([N+](=O)[O-])cc4n3CC)cc2)cc1 (repeat unit)
Q: # rank_down: sort by glass transition temperature, max first Order the labels as requested and list them.
Ans: 2, 3, 1

I. *c1c(C)cc(Cc2cc(C)c(N3C(=O)c4ccc(Oc5cc6ccccc6cc5Oc5ccc6c(c5)C(=O)N(*)C6=O)cc4C3=O)c(C)c2)cc1C (repeat unit)
II. */C=C/CCCCCCC(Cl)CCCCCC* (repeat unit)
Q: Hey, which is lower on measured glass transition temperature, I or II ? To answer, give the label that identifies your chosen option.
Ans: II
(II: -57.00 °C, I: 265.00 °C)

----------
measuredProperty: glass transition temperature (°C)

Solved entries (count: 5):
molecule: *O[Si](*)(C)c1ccccc1 (repeat unit)
unitSpec: °C
glass transition temperature: -28
//
molecule: *c1cccc(Oc2cccc(Oc3cccc(N4C(=O)c5ccc(Oc6ccc7c(c6)C(=O)N(*)C7=O)cc5C4=O)c3)c2C#N)c1 (repeat unit)
unitSpec: °C
glass transition temperature: 219.00
//
molecule: *c1ccc(Oc2ccc(C(c3ccccc3)(c3ccccc3)c3ccc(Oc4ccc(-c5nc(*)nc(-c6ccccc6)n5)cc4)cc3)cc2)cc1 (repeat unit)
unitSpec: °C
glass transition temperature: 261.00
//
molecule: *c1ccc2c(c1)C(=O)N(c1cccc(C(O)c3cccc(N4C(=O)c5ccc(C(*)(C(F)(F)F)C(F)(F)F)cc5C4=O)c3)c1)C2=O (repeat unit)
unitSpec: °C
glass transition temperature: 262.00
//
molecule: *C(F)C(*)(F)F (repeat unit)
unitSpec: °C
glass transition temperature: 31.5

a. *c1ccc(C(=O)c2cccc(C(=O)c3ccc(S(*)(=O)=O)cc3)c2)cc1 (repeat unit)
b. *c1ccc(C2(c3ccc(-c4cc(-c5ccccc5)c5cc(Oc6ccc7nc(*)cc(-c8ccccc8)c7c6)ccc5n4)cc3)c3ccccc3C(=O)c3ccccc32)cc1 (repeat unit)
c. *c1cccc(OCCCCCCCCCCCCOc2cccc(N3C(=O)c4ccc(-c5ccc6c(c5)C(=O)N(*)C6=O)cc4C3=O)c2)c1 (repeat unit)
d. *CC[Si](C)(C)O[Si]1(*)O[Si](C)(C)O[Si](C)(C)O1 (repeat unit)
e. *CCOCCOC(=O)C1CCC(C(=O)O*)CC1 (repeat unit)
Q: # rank_down: sort by glass transition temperature, max first Order the labels as requested and list them.
Ans: b, a, c, e, d
(b: 340.00 °C, a: 198.00 °C, c: 116.00 °C, e: -12.00 °C, d: -64.00 °C)
